The reported numbers originate from ChEMBL document CHEMBL3244151.

Parameter: ED50. Scope: all listed entries.
Tested on: Mus musculus
Assay: Analgesic activity in sc dosed albino dd mouse by tail pressure stimuli method
Format: functional
Dear colleague, please return just the value in mg/kg, with no unit written.

These recorded examples may help you get a feel for the data.
[
  {
    "compound": "Br.CN1C[C@@H]2Cc3ccc(O)cc3[C@@](C)(C2)C1",
    "unitAbbrev": "mg/kg",
    "ED50": 8.4
  },
  {
    "compound": "Br.C[C@@H]1[C@H]2Cc3ccc(O)cc3[C@]1(C)CN(C)C2",
    "unitAbbrev": "mg/kg",
    "ED50": 32.8
  },
  {
    "compound": "Br.C[C@H]1[C@H]2Cc3ccc(O)cc3[C@]1(C)CN(C)C2",
    "unitAbbrev": "mg/kg",
    "ED50": 28
  }
]

Now examine the next entry.
Request: # input compound: COc1ccc2c3c1O[C@H]1[C@@H](O)C=C[C@H]4[C@@H](C2)N(C)CC[C@@]341.COc1ccc2c3c1O[C@H]1[C@@H](O)C=C[C@H]4[C@@H](C2)N(C)CC[C@@]341.O.O=P(O)(O)O.O=P(O)(O)O [CODEINE PHOSPHATE] ; wanted: its ED50
Result: 9.2
